ASSAY_SUMMARY: Stability of peptides in simulated intestinal fluid (pH 7.5)
Assay type: in vitro ADME
PARTICULARS: simulated intestinal fluid, 24 h, 2 μM, pH 7.5
ASSAY_METRIC: % degradation of peptides in 24 h when incubated with simulated intestinal fluid

* CC[C@H](C)[C@H](NC(=O)[C@H](CCC(=O)O)NC(=O)C(C)(C)NC(=O)[C@@H](NC(=O)C1(NC(=O)[C@@H](N)C(C)C)CC1)C(C)C)C(=O)N[C@@H](CCC(N)=O)C(=O)N[C@@H](CC(C)C)C(=O)NC(C)(CCSC)C(=O)N[C@@H](Cc1c[nH]cn1)C(=O)N[C@@H](CCC(N)=O)C(=O)N[C@@H](CCCCNC(=N)N)C(=O)N[C@@H](C)C(=O)N[C@@H](CCCCNC(=N)N)C(=O)NC(C)(Cc1c[nH]c2ccccc12)C(=O)NC(C)(CCCc1ccccc1)C(N)=O (single isomer, unassigned) | 00%

----------
List of % degradation of peptides in 24 h when incubated with simulated gastric fluid values.
ASSAY_SUMMARY: Stability of peptides in simulated gastric fluid (pH 1.5; HCl, NaCl and Pepsin)
Format: in vitro ADME
PARTICULARS: simulated gastric fluid, 24 h, 2 μM, pH 1.5
Where a SMILES comes first, the peptide text is derived from it. [ ]: non-standard residue; d: D form. ξ: configuration not given here. Arg(NO2) = N=C(NCCC[C@H](N)C(=O)O)N[N+](=O)[O-]; ξαMePhe(2,6-F2) = CC(N)(Cc1c(F)cccc1F)C(=O)O; ξαMePhe(2-F) = CC(N)(Cc1ccccc1F)C(=O)O; hhPhe = N[C@@H](CCCc1ccccc1)C(=O)O; hArg = N=C(N)NCCCC[C@H](N)C(=O)O; Cit = NC(=O)NCCC[C@H](N)C(=O)O; ξαMeM = CSCCC(C)(N)C(=O)O; Nle = CCCC[C@H](N)C(=O)O; Ac5c = NC1(C(=O)O)CCCC1; Aib = CC(C)(N)C(=O)O
ASSAY_METRIC: % degradation of peptides in 24 h when incubated with simulated gastric fluid (%)

- CCCC[C@H](NC(=O)C(C)(Cc1c(F)cccc1F)NC(=O)[C@H](CCC(N)=O)NC(=O)[C@@H](NC(=O)[C@H](CCC(=O)O)NC(=O)C(C)(C)NC(=O)[C@@H](NC(=O)C1(N)CCCC1)C(C)C)[C@@H](C)CC)C(=O)N[C@@H](Cc1c[nH]cn1)C(=O)N[C@@H](CCC(N)=O)C(=O)NC(C)(Cc1c(F)cccc1F)C(=O)NC(C)(C)C(=O)N[C@@H](CCCNC(N)=O)C(=O)NC(C)(Cc1ccccc1F)C(N)=O (stereo partly shown) [Seq. ID. 480] (H-[Ac5c]V[Aib]EIQ[ξαMePhe(2,6-F2)][Nle]HQ[ξαMePhe(2,6-F2)][Aib][Cit][ξαMePhe(2-F)]-NH2): 00
- CC[C@H](C)[C@H](NC(=O)[C@H](CCC(=O)O)NC(=O)C(C)(C)NC(=O)[C@@H](NC(=O)C(C)(C)N)C(C)C)C(=O)N[C@@H](CCC(N)=O)C(=O)N[C@@H](CC(C)C)C(=O)NC(C)(CCSC)C(=O)N[C@@H](Cc1c[nH]cn1)C(=O)N[C@@H](CCC(N)=O)C(=O)N[C@@H](CCCCNC(=N)N)C(=O)N[C@@H](C)C(=O)N[C@@H](CCCCNC(=N)N)C(=O)NC(C)(Cc1ccccc1F)C(=O)N[C@@H](CCCc1ccccc1)C(N)=O (stereo partly shown) [Seq. ID. 930] (H-[Aib]V[Aib]EIQL[ξαMeM]HQ[hArg]A[hArg][ξαMePhe(2-F)][hhPhe]-NH2): 00
- CCCC[C@H](NC(=O)C(C)(Cc1ccccc1F)NC(=O)[C@H](CCC(N)=O)NC(=O)[C@@H](NC(=O)[C@H](CCC(=O)O)NC(=O)C(C)(C)NC(=O)[C@@H](NC(=O)C(C)(C)N)C(C)C)[C@@H](C)CC)C(=O)N[C@@H](Cc1c[nH]cn1)C(=O)N[C@@H](CCC(N)=O)C(=O)NC(C)(C)C(=O)NC(C)(C)C(=O)NC(C)(Cc1c(F)cccc1F)C(=O)NC(C)(Cc1ccccc1F)C(N)=O (stereo partly shown) [Seq. ID. 570] (H-[Aib]V[Aib]EIQ[ξαMePhe(2-F)][Nle]HQ[Aib][Aib][ξαMePhe(2,6-F2)][ξαMePhe(2-F)]-NH2): 100
- CCCC[C@H](NC(=O)C(C)(Cc1c(F)cccc1F)NC(=O)[C@H](CCC(N)=O)NC(=O)[C@@H](NC(=O)[C@H](CCC(=O)O)NC(=O)C(C)(C)NC(=O)[C@@H](NC(=O)C(C)(C)N)C(C)C)[C@@H](C)CC)C(=O)N[C@@H](Cc1c[nH]cn1)C(=O)N[C@@H](CCC(N)=O)C(=O)NC(C)(C)C(=O)NC(C)(C)C(=O)N[C@@H](CCCNC(=N)N[N+](=O)[O-])C(=O)NC(C)(Cc1ccccc1F)C(N)=O (stereo partly shown) [Seq. ID. 590] (H-[Aib]V[Aib]EIQ[ξαMePhe(2,6-F2)][Nle]HQ[Aib][Aib][Arg(NO2)][ξαMePhe(2-F)]-NH2): 00

The values you see were collected from patent US8383581B2.
